# experimental target: Zinc finger protein mex-5 (Caenorhabditis elegans, UniProt Q9XUB2)
# Sequence (Q9XUB2 whole entry): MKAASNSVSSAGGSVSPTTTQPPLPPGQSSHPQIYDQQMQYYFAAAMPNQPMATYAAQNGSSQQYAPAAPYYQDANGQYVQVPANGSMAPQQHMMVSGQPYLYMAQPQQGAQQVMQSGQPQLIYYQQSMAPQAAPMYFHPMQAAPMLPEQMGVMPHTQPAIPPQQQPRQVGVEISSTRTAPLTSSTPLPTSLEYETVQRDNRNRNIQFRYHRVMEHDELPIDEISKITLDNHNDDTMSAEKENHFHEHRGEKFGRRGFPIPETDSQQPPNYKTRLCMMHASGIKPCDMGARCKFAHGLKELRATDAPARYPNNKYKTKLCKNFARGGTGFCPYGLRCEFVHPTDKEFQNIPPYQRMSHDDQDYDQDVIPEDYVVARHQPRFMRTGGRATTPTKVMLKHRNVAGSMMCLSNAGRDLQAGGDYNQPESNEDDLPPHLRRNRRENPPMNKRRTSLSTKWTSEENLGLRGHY
# assay method text: potency of MEX-5 RNA-binding blockers – biochemical, C. elegans, fluorescence polarization, dose response (AID 1960)
Calls of active or inactive are those of the source.
endpoint label: EC50

Please review the entries below; each comes with its answer.
CCOC(=O)c1cc2c(=O)n3ccccc3nc2n(C(C)C)/c1=N\C(=O)c1ccncc1: > 300 µM (not active)
CC1=NN(C(N)=S)C(=O)C1N=Nc1ccc(S(N)(=O)=O)cc1 (centres undefined): 8.86 µM (active)
Cc1nn(C)c(C)c1CN(C)C(=O)C1c2ccccc2Oc2ccccc21: 9.86 µM (active)

Task item: Quote EC50 reported for O=C1NC(=O)N(c2ccc(F)cc2)C(=O)/C1=C/c1c[nH]c2ccccc12 please.
Reply: > 300 µM (inconclusive)

----------
# experimental target: Fatty acid synthase (Homo sapiens)
# Sequence (P49327 whole entry): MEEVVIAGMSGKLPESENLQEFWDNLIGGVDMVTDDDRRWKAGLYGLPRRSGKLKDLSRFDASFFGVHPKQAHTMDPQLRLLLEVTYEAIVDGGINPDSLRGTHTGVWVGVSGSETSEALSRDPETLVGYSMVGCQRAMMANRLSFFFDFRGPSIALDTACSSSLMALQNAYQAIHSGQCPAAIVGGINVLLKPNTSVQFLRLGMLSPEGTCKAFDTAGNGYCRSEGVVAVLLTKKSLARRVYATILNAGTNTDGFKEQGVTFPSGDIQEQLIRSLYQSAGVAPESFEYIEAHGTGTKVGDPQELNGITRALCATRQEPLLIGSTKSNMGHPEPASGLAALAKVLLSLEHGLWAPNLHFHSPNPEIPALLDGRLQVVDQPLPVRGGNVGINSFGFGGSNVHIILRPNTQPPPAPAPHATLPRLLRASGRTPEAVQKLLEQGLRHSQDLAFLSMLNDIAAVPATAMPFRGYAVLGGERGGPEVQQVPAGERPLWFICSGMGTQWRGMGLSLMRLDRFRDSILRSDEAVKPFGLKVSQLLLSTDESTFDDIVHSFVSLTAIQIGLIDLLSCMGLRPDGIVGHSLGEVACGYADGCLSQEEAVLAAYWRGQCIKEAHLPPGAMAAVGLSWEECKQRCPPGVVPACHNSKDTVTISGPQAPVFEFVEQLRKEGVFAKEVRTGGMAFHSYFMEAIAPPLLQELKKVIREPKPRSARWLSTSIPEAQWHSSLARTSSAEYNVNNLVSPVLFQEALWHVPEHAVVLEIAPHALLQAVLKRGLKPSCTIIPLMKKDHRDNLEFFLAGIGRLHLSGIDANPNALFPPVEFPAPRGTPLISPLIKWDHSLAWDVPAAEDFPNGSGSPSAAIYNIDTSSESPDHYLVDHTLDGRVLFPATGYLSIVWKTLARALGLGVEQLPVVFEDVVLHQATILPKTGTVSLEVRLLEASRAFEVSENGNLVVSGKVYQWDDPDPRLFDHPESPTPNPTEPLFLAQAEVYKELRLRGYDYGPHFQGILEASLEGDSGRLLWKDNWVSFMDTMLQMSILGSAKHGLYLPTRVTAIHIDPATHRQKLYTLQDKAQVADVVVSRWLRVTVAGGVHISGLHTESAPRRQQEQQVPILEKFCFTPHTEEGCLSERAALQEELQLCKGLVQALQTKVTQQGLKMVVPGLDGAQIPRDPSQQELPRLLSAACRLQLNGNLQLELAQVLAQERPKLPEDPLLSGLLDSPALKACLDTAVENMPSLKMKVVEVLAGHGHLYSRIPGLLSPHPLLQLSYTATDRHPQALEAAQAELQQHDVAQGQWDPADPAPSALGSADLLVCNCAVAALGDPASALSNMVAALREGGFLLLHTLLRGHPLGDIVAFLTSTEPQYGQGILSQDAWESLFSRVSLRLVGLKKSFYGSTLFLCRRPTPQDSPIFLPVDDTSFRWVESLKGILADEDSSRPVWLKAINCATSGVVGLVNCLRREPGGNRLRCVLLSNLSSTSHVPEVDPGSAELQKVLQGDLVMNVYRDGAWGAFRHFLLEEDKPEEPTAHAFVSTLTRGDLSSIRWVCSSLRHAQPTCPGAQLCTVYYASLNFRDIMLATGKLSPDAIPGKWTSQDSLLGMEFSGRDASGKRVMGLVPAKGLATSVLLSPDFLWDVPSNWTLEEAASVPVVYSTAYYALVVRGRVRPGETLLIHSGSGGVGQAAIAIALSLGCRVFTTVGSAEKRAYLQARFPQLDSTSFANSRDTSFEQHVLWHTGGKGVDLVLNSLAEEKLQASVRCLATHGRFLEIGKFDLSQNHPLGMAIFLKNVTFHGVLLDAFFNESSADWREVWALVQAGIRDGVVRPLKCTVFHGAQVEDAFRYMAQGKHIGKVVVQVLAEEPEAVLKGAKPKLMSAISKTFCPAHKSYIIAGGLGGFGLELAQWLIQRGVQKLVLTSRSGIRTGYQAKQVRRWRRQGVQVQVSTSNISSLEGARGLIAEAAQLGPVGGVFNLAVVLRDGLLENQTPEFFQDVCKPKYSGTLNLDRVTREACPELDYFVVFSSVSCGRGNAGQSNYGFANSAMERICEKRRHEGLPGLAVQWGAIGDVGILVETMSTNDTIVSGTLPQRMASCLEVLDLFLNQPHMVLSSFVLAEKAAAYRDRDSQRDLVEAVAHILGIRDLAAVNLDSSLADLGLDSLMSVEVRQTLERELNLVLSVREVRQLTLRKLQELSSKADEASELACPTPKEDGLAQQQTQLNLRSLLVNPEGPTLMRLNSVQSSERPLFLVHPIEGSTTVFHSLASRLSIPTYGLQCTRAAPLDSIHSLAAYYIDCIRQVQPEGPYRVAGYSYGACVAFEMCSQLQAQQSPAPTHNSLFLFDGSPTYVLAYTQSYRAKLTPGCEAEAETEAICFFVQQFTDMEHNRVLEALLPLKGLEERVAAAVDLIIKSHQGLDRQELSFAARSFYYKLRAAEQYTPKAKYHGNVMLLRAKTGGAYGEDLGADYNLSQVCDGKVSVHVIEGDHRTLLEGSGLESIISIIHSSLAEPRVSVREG
# assay method text: inhibition of human FAS-TE enzyme activity – biochemical, endpoint fluorescence intensity, uHTS hits, dose response (AID 624327);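 further: fluorescence from hydrolysis of an O-methyl fluorescein acyl ester substrate by the enzyme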
# Assay type: functional
Active and inactive are the calls of the source.
endpoint label: IC50

Please review the entries below; each comes with its answer.
COC(=O)c1cc(C(=O)Nc2nnc(CC(C)(C)C)s2)cc([N+](=O)[O-])c1: 12.7 µM (active)
Cc1cccc(N2CCN(C(=O)COc3ccc4ccc(=O)oc4c3)CC2)c1C: 3.84 µM (active)
Cc1cccc(C)c1Cn1c(C)c(C(=O)NCc2ccc([N+](=O)[O-])cc2)sc1=O: 6.75 µM (active)
Cc1ccc(NC(=O)CN2C(=O)CSc3ccc(S(=O)(=O)N4CCCCC4)cc32)cc1: 14.9 µM (active)
CCc1cc2c(=O)oc(-c3ccccc3F)nc2s1: 2.48 µM (active)

Task item: Quote IC50 reported for CN1CCc2nc(SCc3ccccc3Br)c(C#N)cc2C1 please.
Reply: 7.9 µM (active)

----------
# assay method text: Trypanosoma cruzi growth suppression in host cells – NIH3T3 host cells, beta-gal luminescence, confirmation (AID 2044);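 further: intracellular parasites grown in NIH/3T3 mouse fibroblasts as host cells; luminescent beta-galactosidase reporter signal from transgenic T. cruzi replicating inside host cells; inhibitors lower the luminescence signal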
# Assay type: functional, cell-based
Activity calls are given as the source filed them.
# EC50 per entry

O=C(N/N=C/c1cc(Br)cc(Br)c1O)c1cccc(N2CCCC2=O)c1: 1550 nM (active)
CCC(C)NC(=O)c1c(N)n(/N=C/c2ccccn2)c2nc3ccccc3nc12 (stereo not drawn): 2180 nM (active)
CCN1CCN(c2cc(C)c3cc(NC(=O)Cc4ccccc4OC)ccc3n2)CC1: 1140 nM (active)
O=C(OC(c1ccccc1)c1nccc2ccccc12)c1cc([N+](=O)[O-])cc([N+](=O)[O-])c1 (stereo not drawn): 1010 nM (active)

Task item: Quote EC50 reported for Cc1ccc(NC(=O)C2CCN(c3cnccn3)CC2)cc1C please.
Reply: 1550 nM (active)

Task item: Quote EC50 reported for OC(COc1ccc2cc(Br)ccc2c1)Cn1ccnc1 (stereo not drawn) please.
Reply: < 100 nM (active)

Task item: Quote EC50 reported for Oc1ccc(CNc2ccc(F)cc2)c2cccnc12 please.
Reply: 5560 nM (active)

Task item: Quote EC50 reported for O=C(Nc1ccc(F)c(Cl)c1)C1CCCN(c2cnccn2)C1 (stereo not drawn) please.
Reply: 390 nM (active)

----------
# EC50 per entry
# experimental target: Streptokinase A (Streptococcus pyogenes serotype M1)
# Sequence (P10520 whole entry): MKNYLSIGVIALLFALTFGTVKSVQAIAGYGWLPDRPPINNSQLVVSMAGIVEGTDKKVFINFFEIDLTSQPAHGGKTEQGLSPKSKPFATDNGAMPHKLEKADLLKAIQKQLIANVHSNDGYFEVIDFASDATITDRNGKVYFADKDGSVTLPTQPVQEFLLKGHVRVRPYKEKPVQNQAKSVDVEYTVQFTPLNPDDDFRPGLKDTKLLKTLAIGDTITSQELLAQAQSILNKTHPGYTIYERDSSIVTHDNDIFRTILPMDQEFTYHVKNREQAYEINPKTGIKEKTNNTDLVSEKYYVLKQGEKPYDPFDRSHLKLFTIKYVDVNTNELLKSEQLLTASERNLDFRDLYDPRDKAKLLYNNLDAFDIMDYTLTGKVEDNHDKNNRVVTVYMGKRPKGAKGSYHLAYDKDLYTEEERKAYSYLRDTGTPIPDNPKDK
# assay method text: viability-normalized secreted streptokinase activity reduction – plasminogen activation absorbance, OD405, dose response (AID 1914);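 further: secreted streptokinase activity via plasminogen activation per viability signal from cell pellet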
# Type: functional, Streptococcus pyogenes M1 GAS
Activity calls are given as the source filed them.

Please review the entries below; each comes with its answer.
O=C(CSc1nnc(-c2ccc3c(c2)OCO3)o1)Nc1ncc(C(F)(F)F)cc1Cl: > 150 µM (not active)
CC(Oc1ccc(Cl)cc1Cl)c1nc(-c2ccc(NC(=O)c3ccco3)cc2)no1 (centres undefined): > 150 µM (not active)
COc1ccc(C(CC(=O)N2CCCC(C)C2)c2c(OC)cc(OC)c3c(-c4ccccc4)cc(=O)oc23)cc1 (centres undefined): 41.2 µM (active)

Task item: Quote EC50 reported for Cc1ccc(S(=O)(=O)N2c3ccccc3OCC2C(C)(C)C)cc1 (centres undefined) please.
Reply: 16.9 µM (active)
